- Tested on: corn (Zea mays)
- measurement_protocol: Test A pre-/postemergence plant response
- Type: in vivo
- condition_set: Preemergence, 125 g ai/ha; 0 to 100 scale, 0 = no effect, 100 = complete control
attribute_measured: Plant response rating, Corn
Simply state the number, no unit and no words.

# Cc1cccc(-c2ncc(C(=O)C3=C(O)CCCC3=O)c(=O)n2C2CCCCC2)c1 with corn (Zea mays): Plant response rating, Corn is 0

# O=C1CCCC(O)=C1C(=O)c1cnc(-c2cccc(F)c2)n(-c2ccccc2)c1=O with corn (Zea mays): Plant response rating, Corn is 20

# CCCn1c(-c2cc(C)cc(C)c2)ncc(C(=O)C2=C(O)CCCC2=O)c1=O with corn (Zea mays): Plant response rating, Corn is 0

# CCn1c(-c2cccc(C)c2)ncc(C(=O)C2=C(O)C3CCC(C3)C2=O)c1=O (centres unmarked) with corn (Zea mays): Plant response rating, Corn is 0

# CCCn1c(-c2ccsc2)ncc(C(=O)C2=C(O)C3CCC(C3)C2=O)c1=O (centres unmarked) with corn (Zea mays): Plant response rating, Corn is 0

# COCCn1c(-c2ccccc2)ncc(C(=O)C2=C(O)CCCC2=O)c1=O with corn (Zea mays): Plant response rating, Corn is 0

# CCCCc1ncc(C(=O)C2=C(O)CCCC2=O)c(=O)n1-c1ccc(C)cc1 with corn (Zea mays): Plant response rating, Corn is 0

# O=C1CCCC(O)=C1C(=O)c1cnc(-c2cccc(F)c2)n(C2CCCCC2)c1=O with corn (Zea mays): Plant response rating, Corn is 0

# Cc1ccc(-n2c(-c3cccc(F)c3)ncc(C(=O)C3=C(O)CCCC3=O)c2=O)cc1 with corn (Zea mays): Plant response rating, Corn is 20

# Cc1ccc(Cl)cc1-n1c(-c2cc(F)cc(F)c2)ncc(C(=O)C2=C(O)CCCC2=O)c1=O with corn (Zea mays): Plant response rating, Corn is 0

# COCCCn1c(-c2cccc(F)c2)ncc(C(=O)C2=C(O)C3CCC(C3)C2=O)c1=O (centres unmarked) with corn (Zea mays): Plant response rating, Corn is 0

# CCCn1c(-c2cccs2)ncc(C(=O)c2cnn(CC)c2O)c1=O with corn (Zea mays): Plant response rating, Corn is 0

# Cc1cc(-n2c(-c3ccccc3)ncc(C(=O)C3=C(O)CCCC3=O)c2=O)ccc1F with corn (Zea mays): Plant response rating, Corn is 0

# Cc1cc(-n2c(-c3cccc(Cl)c3)ncc(C(=O)C3=C(O)CCCC3=O)c2=O)ccc1F with corn (Zea mays): Plant response rating, Corn is 0

# COCCn1c(-c2cccc(F)c2)ncc(C(=O)C2=C(O)C3CCC(C3)C2=O)c1=O (centres unmarked) with corn (Zea mays): Plant response rating, Corn is 20

# CCCCCc1ncc(C(=O)C2=C(O)CCCC2=O)c(=O)n1-c1ccccc1 with corn (Zea mays): Plant response rating, Corn is 0

# CCCc1ncc(C(=O)C2=C(O)CCCC2=O)c(=O)n1Cc1ccccc1 with corn (Zea mays): Plant response rating, Corn is 0

----------
- Test system: windgrass (Apera spica-venti)
- measurement_protocol: Test B postemergence plant response
- Assay type: in vivo
- condition_set: Postemergence, 125 g ai/ha; scale 0 to 100 (0 no effect, 100 complete control)
Returns one of 1 or -1; 1 when Plant response rating, Windgrass is >= 60.

Test whether the molecule CCCn1c(-c2cc(C)cc(C)c2)ncc(C(=O)C2=C(O)CCCC2=O)c1=O [Compound 156] records Plant response rating, Windgrass of 60 or higher. -1

Test whether the molecule CCCn1c(-c2cccc(C(F)(F)F)c2)ncc(C(=O)C2=C(O)CCCC2=O)c1=O [Compound 155] records Plant response rating, Windgrass of 60 or higher. 1

Test whether the molecule CCCn1c(-c2cc(F)cc(F)c2)ncc(C(=O)C2=C(O)CCCC2=O)c1=O [Compound 152] records Plant response rating, Windgrass of 60 or higher. 1

Test whether the molecule CCCn1c(-c2cccc(Br)c2)ncc(C(=O)C2=C(O)CCCC2=O)c1=O [Compound 141] records Plant response rating, Windgrass of 60 or higher. -1

Test whether the molecule Cc1cc(-n2c(-c3cccc(F)c3)ncc(C(=O)C3=C(O)CCCC3=O)c2=O)ccc1F [Compound 191] records Plant response rating, Windgrass of 60 or higher. 1

Test whether the molecule COCCCn1c(-c2cc(F)cc(F)c2)ncc(C(=O)C2=C(O)CCCC2=O)c1=O [Compound 120] records Plant response rating, Windgrass of 60 or higher. 1

----------
- Test system: canarygrass (Phalaris minor)
- measurement_protocol: Test B postemergence plant response
- Type: in vivo
- condition_set: Postemergence, 125 g ai/ha; scale 0 to 100 (0 no effect, 100 complete control)
Returns one of satisfied or not satisfied; satisfied when Plant response rating, Canarygrass is >= 60.

Test whether the compound COCCn1c(-c2cccc(F)c2)ncc(C(=O)C2=C(O)C3CCC(C3)C2=O)c1=O (centres unmarked) records Plant response rating, Canarygrass of 60 or higher. not satisfied

Test whether the compound CCCn1c(-c2cc(F)cc(F)c2)ncc(C(=O)C2=C(O)CCCC2=O)c1=O records Plant response rating, Canarygrass of 60 or higher. satisfied

Test whether the compound O=C1CCCC(O)=C1C(=O)c1cnc(-c2cccc(F)c2)n(C2CCCCC2)c1=O records Plant response rating, Canarygrass of 60 or higher. not satisfied

Test whether the compound CC1(C)CC(=O)C(C(=O)c2cnc(-c3ccccc3)n(-c3ccccc3)c2=O)=C(O)C1 records Plant response rating, Canarygrass of 60 or higher. satisfied

Test whether the compound COCCCn1c(-c2cccc(Br)c2)ncc(C(=O)C2=C(O)CCCC2=O)c1=O records Plant response rating, Canarygrass of 60 or higher. not satisfied

----------
- System: johnsongrass (Sorghum halepense)
- measurement_protocol: Test B pre-/postemergence plant response
- Assay type: in vivo
- condition_set: Postemergence, 250 g ai/ha; scale 0 to 100 (0 no effect, 100 complete control); 13 to 15 days
attribute_measured: Plant response rating, Johnsongrass

compound COCCCn1c(-c2cccc(F)c2)ncc(C(=O)C2=C(O)C3CCC(C3)C2=O)c1=O (stereo not shown) , Plant response rating, Johnsongrass observed: 100

compound COCCn1c(-c2cccc(F)c2)ncc(C(=O)C2=C(O)C3CCC(C3)C2=O)c1=O (stereo not shown) , Plant response rating, Johnsongrass observed: 100

compound O=C1CCCC(O)=C1C(=O)c1cnc(-c2ccccc2)n(C2CCSCC2)c1=O , Plant response rating, Johnsongrass observed: 98

compound CCCn1c(-c2cccc(Br)c2)ncc(C(=O)C2=C(O)CCCC2=O)c1=O , Plant response rating, Johnsongrass observed: 65

----------
- Test system: morningglory (Ipomoea spp.)
- measurement_protocol: Test A pre-/postemergence plant response
- Type: in vivo
- condition_set: Postemergence, 125 g ai/ha; 0 to 100 scale where 0 is no effect and 100 is complete control
attribute_measured: Plant response rating, Morningglory
Simply state the number, no unit and no words.

# O=C1CCCC(O)=C1C(=O)c1cnc(-c2ccccc2)n(C2CCSCC2)c1=O [Compound 164] with morningglory (Ipomoea spp.): Plant response rating, Morningglory is 100

# CCc1ccc(-n2c(-c3cc(F)cc(F)c3)ncc(C(=O)C3=C(O)CCCC3=O)c2=O)cc1 [Compound 158] with morningglory (Ipomoea spp.): Plant response rating, Morningglory is 70

# CCCn1c(-c2ccco2)ncc(C(=O)C2=C(O)CCCC2=O)c1=O [Compound 110] with morningglory (Ipomoea spp.): Plant response rating, Morningglory is 90

# Cc1cc(F)ccc1-n1c(-c2cccc(Br)c2)ncc(C(=O)C2=C(O)CCCC2=O)c1=O [Compound 166] with morningglory (Ipomoea spp.): Plant response rating, Morningglory is 100

----------
- Test system: Surinam grass (Brachiaria decumbens)
- measurement_protocol: Test B pre-/postemergence plant response
- Assay type: in vivo
- condition_set: Preemergence, 62 g ai/ha; scale 0 to 100 (0 no effect, 100 complete control)
Hi there, I'd appreciate the recorded Plant response rating, Surinam Grass for every entry that follows.
Simply state the number, no unit and no words.

compound CCCn1c(-c2cccs2)ncc(C(=O)C2=C(O)CCCC2=O)c1=O , Plant response rating, Surinam Grass observed: 20

compound O=C1CCCC(O)=C1C(=O)c1cnc(-c2ccsc2)n(-c2ccccc2)c1=O , Plant response rating, Surinam Grass observed: 95

compound CCCCn1c(-c2cc(F)cc(F)c2)ncc(C(=O)C2=C(O)C3CCC(C3)C2=O)c1=O (stereo not shown) , Plant response rating, Surinam Grass observed: 100

compound CCc1ccccc1-n1c(-c2ccccc2)ncc(C(=O)C2=C(O)CCCC2=O)c1=O , Plant response rating, Surinam Grass observed: 85

compound COCCn1c(-c2cc(F)cc(F)c2)ncc(C(=O)C2=C(O)CCCC2=O)c1=O , Plant response rating, Surinam Grass observed: 98

compound Cn1c(-c2ccccc2)ncc(C(=O)C2=C(O)CCCC2=O)c1=O , Plant response rating, Surinam Grass observed: 0

compound CCCCc1ncc(C(=O)C2=C(O)CCCC2=O)c(=O)n1-c1ccc(C)cc1 , Plant response rating, Surinam Grass observed: 10
